biological target: human NTCP (Homo sapiens, UniProt Q14973); assay: Screening taurocholate uptake assay (96-well, [14C]taurocholate, 10 µM drug); conditions: combined ranking of functional and binding screening assays
Counter-ions that a name gives are not always drawn.
Kindly state Ranking score for each of the entries shown.
Answers are plain numbers.

Worked examples follow.
CN(C)c1nc(N(C)C)nc(N(C)C)n1 [Altretamine] | 605.153
CC(C)NC[C@H](O)COc1cccc2ccccc12 [(S)-propranolol hydrochloride] | 599.166
C[C@]12CC[C@@H]3c4ccc(O)cc4CC[C@H]3[C@@H]1C[C@@H](O)[C@@H]2O [Estriol] | 589.644
CCCCOc1ccc(C(=O)CCN2CCCCC2)cc1 [Dyclonine hydrochloride] | 591.312
CN(C)[C@@H]1C(O)=C(C(=O)NCNCCCC[C@H](N)C(=O)O)C(=O)[C@@]2(O)C(O)=C3C(=O)c4c(O)cccc4[C@@](C)(O)[C@H]3C[C@@H]12 [Lymecycline] | 591.633

Below: the item to evaluate.
QUERY: # Ranking score lookup, item C[C@]1(Cn2ccnn2)[C@H](C(=O)O)N2C(=O)C[C@H]2S1(=O)=O [Tazobactam]
RESULT: 613.948

----------
molecular target: UniProt Q14973; assay: Screening taurocholate uptake assay (96-well, [14C]taurocholate, 10 µM drug); conditions: combined ranking of functional and binding screening assays
Where a name gives a salt, the structure may show the parent alone.
Kindly supply the reported Ranking score values for the records listed here.
Give bare numbers.

See these solved cases before continuing.
C=C1C(=O)O[C@H]2[C@H]1CC/C(C)=C/CC[C@@]1(C)O[C@@H]21 [Parthenolide] | 607.546
COc1cc2nc(N3CCN(C(=O)C4CCCO4)CC3)nc(N)c2cc1OC (centres unmarked) [Terazosin hydrochloride] | 497.689

Lab note: each compound below needs its Ranking score filled in.
1. C=CCc1ccccc1OCC(O)CNC(C)C (centres unmarked) [Alprenolol hydrochloride]
2. NC(CO)C(=O)NNCc1ccc(O)c(O)c1O (centres unmarked) [Benserazide hydrochloride]
3. O=C(CCCCCCC(=O)Nc1ccccc1)NO [Vorinostat]
4. CCN(CC)CCc1nc(-c2ccccc2)no1.O=C(O)CC(O)(CC(=O)O)C(=O)O [Oxalamine citrate salt]
5. CCC(C)(C)c1ccc(CC(C)CN2C[C@@H](C)O[C@@H](C)C2)cc1 (some centres unmarked) [Amorolfine hydrochloride]
6. CO[C@]12C[C@@H](COC(=O)c3cncc(Br)c3)CN(C)[C@@H]1Cc1cn(C)c3cccc2c13 [Nicergoline]

RESULT:
1: 1166.46; 2: 520.826; 3: 583.003; 4: 587.786; 5: 533.183; 6: 615.79

----------
Please provide measured B-score functional assay for the entries that follow.
Molecular target: human NTCP (Homo sapiens, UniProt Q14973)
Sequence (Q14973 1-349): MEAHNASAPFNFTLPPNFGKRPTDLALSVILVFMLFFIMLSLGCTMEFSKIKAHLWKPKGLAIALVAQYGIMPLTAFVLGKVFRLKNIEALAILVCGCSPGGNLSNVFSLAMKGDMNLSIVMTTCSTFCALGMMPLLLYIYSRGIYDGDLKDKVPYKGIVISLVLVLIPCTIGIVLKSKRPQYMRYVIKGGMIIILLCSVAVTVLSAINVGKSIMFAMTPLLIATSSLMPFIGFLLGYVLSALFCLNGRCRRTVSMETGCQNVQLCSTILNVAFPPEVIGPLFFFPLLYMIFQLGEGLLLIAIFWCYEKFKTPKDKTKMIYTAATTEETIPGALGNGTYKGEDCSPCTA
Experiment: Screening taurocholate uptake assay (96-well, [14C]taurocholate, 10 µM drug)
Conditions: Prestwick library screen, 10 µM drug; B-score of taurocholate uptake
Structures can show the parent of a compound that is named as a salt.
One number for each entry.

# count of solved cases: 2
CC[C@@]1(O)C(=O)OCc2c1cc1n(c2=O)Cc2cc3ccccc3nc2-1 [Camptothecine (S,+)] | 0.986
NNC(=O)c1ccncc1 [Isoniazid] | 1.386

Here is another compound to look at.
QUERY: Look up B-score functional assay for this compound: CCCCOc1ccc(OCCCN2CCOCC2)cc1 [Pramoxine hydrochloride]
RESULT: 1.223

----------
Molecular target: human NTCP (Homo sapiens, UniProt Q14973)
Sequence (Q14973 1-349): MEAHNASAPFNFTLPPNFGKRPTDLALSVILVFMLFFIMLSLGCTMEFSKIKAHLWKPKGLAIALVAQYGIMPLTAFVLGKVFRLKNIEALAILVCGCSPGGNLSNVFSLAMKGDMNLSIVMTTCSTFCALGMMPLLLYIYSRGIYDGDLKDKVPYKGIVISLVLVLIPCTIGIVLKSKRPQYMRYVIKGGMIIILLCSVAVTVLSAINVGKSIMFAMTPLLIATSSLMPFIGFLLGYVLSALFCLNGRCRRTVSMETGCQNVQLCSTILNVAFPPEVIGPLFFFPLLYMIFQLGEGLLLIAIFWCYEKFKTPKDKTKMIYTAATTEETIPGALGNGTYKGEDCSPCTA
Experiment: Screening taurocholate uptake assay (96-well, [14C]taurocholate, 10 µM drug)
Conditions: ranking score beside the functional and binding assay B-scores of the screen
Where a name gives a salt, the structure may show the parent alone.
Kindly supply the reported Ranking score values for the records listed here.
Give bare numbers.

Cn1c(=O)c2c(ncn2CCO)n(C)c1=O | 831.39
CN(C/C=C/C#CC(C)(C)C)Cc1cccc2ccccc12 | 842.5
CN(C)CC/C=C1/c2ccccc2Sc2ccc(Cl)cc21 [Chlorprothixene hydrochloride] | 661.498

Quick one: give me Ranking score for each item below, same order please.
1. Cl.Cl.Cl.Cl.Cl.NCCNCCNCCNCCN
2. CCN(CC)CC(=O)Nc1c(C)cccc1C [Lidocaine hydrochloride]
3. C=CC(N)CCC(=O)O (centres unmarked)
4. C[N+]1(C)CCC(OC(=O)C(O)(c2ccccc2)C2CCCC2)C1 (centres unmarked) [Glycopyrrolate]

RESULT:
1: 758.136; 2: 815.009; 3: 730.208; 4: 820.625

For each of the molecules below, state Ranking score.
1. O=C(Cn1ccnc1[N+](=O)[O-])NCCO
2. C[C@H](CS)C(=O)N1CCC[C@H]1C(=O)O
3. CO[C@@H]1[C@@H](O[C@@H]2O[C@H](C)[C@@H](O[C@H]3C[C@@](C)(O)[C@@H](OC(=O)CC(C)C)[C@H](C)O3)[C@H](N(C)C)[C@H]2O)[C@@H](CC=O)C[C@@H](C)[C@@H](O)/C=C/C=C/C[C@@H](C)OC(=O)C[C@H]1OC(C)=O
4. CC(=O)O[C@]1(C(C)=O)CC[C@H]2[C@@H]3C=C(Cl)C4=CC(=O)[C@@H]5C[C@@H]5[C@]4(C)[C@H]3CC[C@@]21C [Cyproterone acetate]
5. CN1C2CCCC1CC(NC(=O)c1nn(C)c3ccccc13)C2 (centres unmarked)
6. CC(=O)N(CC(O)CO)c1c(I)c(C(=O)NCC(O)CO)c(I)c(C(=O)NCC(O)CO)c1I (centres unmarked) [Iohexol]
7. Cl.O.O.O=C1CC[C@@]2(O)[C@H]3Cc4ccc(O)c5c4[C@@]2(CCN3CC2CC2)[C@H]1O5 [Naltrexone hydrochloride dihydrate]
8. [H]/N=C(/N)NS(=O)(=O)c1ccc(N)cc1

RESULT:
[680.728, 728.08, 744.048, 678.19, 726.756, 748.519, 809.543, 669.134]

----------
target: human NTCP (Homo sapiens, UniProt Q14973); assay: Screening taurocholate uptake assay (96-well, [14C]taurocholate, 10 µM drug); conditions: ranking over the functional and the binding screening assay
Where a name gives a salt, the structure may show the parent alone.
Threshold check on Ranking score: at or above 200 gives 1 (yes), strictly below gives 0 (no).

A selection of reference data follows.
CCCCCCCCCCCCCCCC[N+](C)(C)CCN(Cc1ccc(OC)cc1)c1ncccn1 [Thonzonium bromide] | 0 (no)
CCCCCN(CCCCC)C(=O)C(CCC(=O)[O-])NC(=O)c1ccc(Cl)c(Cl)c1.[Na+] (stereo not shown) [Lorglumide sodium salt] | 0 (no)
Nc1nc(Cl)nc2c1ncn2[C@H]1C[C@H](O)[C@@H](CO)O1 | 1 (yes)
CNC(=O)Oc1ccc2c(c1)[C@]1(C)CCN(C)[C@@H]1N2C [Eserine hemisulfate salt] | 1 (yes)
C[C@H](N)[C@H](O)c1cccc(O)c1 [Metaraminol bitartrate] | 0 (no)
CC(C)OC(=O)C(C)(C)Oc1ccc(C(=O)c2ccc(Cl)cc2)cc1 [Fenofibrate] | 1 (yes)

QUERY: Reported Ranking score at or above 200? Cc1c(O)c(=O)n(-c2ccccc2)n1C [Antipyrine, 4-hydroxy]
RESULT: 1 (yes)

QUERY: Dear colleague, could you confirm whether CCC(=O)OCC(=O)[C@@]1(OC(=O)CC)[C@@H](C)C[C@H]2[C@@H]3CCC4=CC(=O)C=C[C@]4(C)[C@@]3(Cl)[C@@H](O)C[C@@]21C [Beclomethasone dipropionate] has Ranking score at or above 200?
RESULT: 0 (no)

QUERY: Can CN1CCN(C(=O)OC2c3nccnc3C(=O)N2c2ccc(Cl)cn2)CC1 (stereo not shown) be said to have Ranking score at or above 200?
RESULT: 0 (no)

QUERY: Evaluate Nc1ccc(/N=N/c2ccccc2)c(N)n1 [Phenazopyridine hydrochloride] : Ranking score at minimum 200?
RESULT: 0 (no)

QUERY: Quick check, Ranking score >= 200? c1ccc2c(CC3=NCCN3)cccc2c1 [Naphazoline hydrochloride]
RESULT: 0 (no)

QUERY: For this molecule, is measured Ranking score 200 or higher? C[C@H](CCC(=O)O)[C@H]1CC[C@H]2[C@@H]3CC[C@@H]4C[C@H](O)CC[C@]4(C)[C@H]3CC[C@]12C
RESULT: 0 (no)

QUERY: Does O=C(O)c1ccccc1Nc1cccc(C(F)(F)F)c1 have a reported Ranking score of at least 200?
RESULT: 0 (no)

QUERY: Given CC(=O)Oc1ccc(C(c2ccc(OC(C)=O)cc2)c2ccccn2)cc1 , state whether its Ranking score is at least 200.
RESULT: 0 (no)

QUERY: Reported Ranking score at or above 200? CC(C)(C)NCC(O)c1ccc(O)c(CO)c1 (stereo not shown)
RESULT: 1 (yes)

QUERY: Is Ranking score for CC(COc1ccccc1)N(CCCl)Cc1ccccc1 (stereo not shown) [Phenoxybenzamine hydrochloride] at or above 200?
RESULT: 1 (yes)

QUERY: Could you please find out whether NCCc1c[nH]c2ccc(O)cc12 [Serotonin hydrochloride] has Ranking score that meets 200 or exceeds it?
RESULT: 0 (no)

QUERY: Quick check: does CCOC(=O)c1ccc(N)cc1 have Ranking score greater than or equal to 200?
RESULT: 0 (no)

QUERY: Please check the record CN/C(=N/CCSCc1nc[nH]c1C)NC#N and state if its Ranking score is at or above 200.
RESULT: 1 (yes)

QUERY: hey, is Ranking score for this one >= 200? C[C@@H]1C[C@H]2[C@@H]3CCC4=CC(=O)C=C[C@]4(C)[C@@]3(Cl)[C@@H](O)C[C@]2(C)[C@@]1(OC(=O)c1ccco1)C(=O)CCl [Mometasone furoate]
RESULT: 0 (no)

QUERY: Is Ranking score for OCCN1CCN(CCCN2c3ccccc3Sc3ccc(Cl)cc32)CC1 at or above 200?
RESULT: 0 (no)

QUERY: Is it the case that C#C[C@]1(O)CC[C@H]2[C@@H]3CCC4=CC(=O)CC[C@@H]4[C@H]3CC[C@@]21C has Ranking score reaching or exceeding 200?
RESULT: 1 (yes)

QUERY: Determine whether this molecule has Ranking score no lower than 200: CNC[C@H](O)[C@@H](O)[C@H](O)[C@H](O)CO
RESULT: 0 (no)

QUERY: Check the entry CC(C)(O)c1ccccc1CC[C@@H](SCC1(CC(=O)O)CC1)c1cccc(/C=C/c2ccc3ccc(Cl)cc3n2)c1 : does Ranking score equal or exceed 200?
RESULT: 0 (no)

QUERY: Is it the case that CC[C@H](c1ccc(O)cc1)[C@@H](CC)c1ccc(O)cc1 has Ranking score reaching or exceeding 200?
RESULT: 0 (no)

QUERY: Please indicate if the recorded Ranking score for CCCCCCC[N+](CC)(CC)CCCCc1ccc(Cl)cc1.Cc1ccc(S(=O)(=O)[O-])cc1 [Clofilium tosylate] meets or exceeds 200.
RESULT: 0 (no)

Cited source for all entries: paper PMC5681660
